- Assay system: T1, PUF4 RNA-binding domain (Saccharomyces cerevisiae, UniProt P25339 537-888)
- T1 sequence: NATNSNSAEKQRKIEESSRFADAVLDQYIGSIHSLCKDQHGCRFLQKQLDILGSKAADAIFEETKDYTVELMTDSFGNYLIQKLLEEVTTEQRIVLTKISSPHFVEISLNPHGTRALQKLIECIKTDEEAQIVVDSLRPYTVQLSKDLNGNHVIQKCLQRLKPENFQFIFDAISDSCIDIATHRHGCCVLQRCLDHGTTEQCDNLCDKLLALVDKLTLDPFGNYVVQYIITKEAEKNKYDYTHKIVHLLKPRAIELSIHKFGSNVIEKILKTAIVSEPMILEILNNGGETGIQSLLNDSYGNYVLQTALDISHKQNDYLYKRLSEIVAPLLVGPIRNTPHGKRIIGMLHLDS
- Method description: Mg; RNA-MaP; 20 mM Na-HEPES pH 7.4, 30 mM KOAc, 0.75 mM MgCl2, 0.1% Tween-20, 5% glycerol, 0.1 mg/mL BSA, 2 mM DTT; 25 C; 0.0125-409.6 nM protein
- Experimental setup: tags: N-His6-TEV cleaved; C-SNAP kept, Cy3B-labelled; label: tethered on chip by stalled RNA polymerase
pKd: −log10 of the molar value.
Response key: label 1 means pKd >= 7; label 0 means pKd < 7.

Sample answers from the record:
ACAAACUGACACUUAUUACCACAAAC (ssRNA) [Id_ii_S3_P5E.4_K5.3_C5.2_[C-2T]_[T-1G]_H5.3_A5.1_F5.1_T5.2_[T11C]_[A12C]]    label 0
UCUCUUUGUAUCAGUGUCUCUU (ssRNA) [Ic_S1_P5E.1_K5.1_C5.1_H5.1_A5.1_[T6C]_F5.1_[T8G]_[A10G]_T5.1]    label 0
UCUCUUUGUAAAUACUCUCUU (ssRNA) [Ic_S1_P4E.1_K4.1_C4.1_H4.1_A4.1_[T5A]_F4.1_[T8A]_[A9C]_T4.1]    label 1
Ic_S2_P4E.1_K4.1_C4.1_H4.1_A4.1_[A6G]_[T7C]_F4.1_[T8A]_T4.1 (ssRNA) RNA: UUUGAUUAAUAUGAUAUCGUUCUUUCUUGUAUGCAAUUCUUUCUCGAUAUCAUAUUAAUCUUU    label 0
Ie_S4_P3E.2_K3.1_C3.2_H3.1_[+1TC]_A3.1_F3.1_T3.2 (ssRNA) RNA: UUUGACAACUGAUCGUUCUUUCUCUUUCGUAUAUAUAUUCUUUCUCGAUCAGUUGUCUUU    label 1
UCUCUUUGUAAAAGUCUCUU (ssRNA) [Ic_S1_P3E.1_K3.1_C3.1_H3.1_A3.1_[T5A]_F3.1_[T7A]_[A8G]_T3.1]    label 0

-- ask # bool: pKd of ACAAACUGUAUUAUUUCUAACAAAC (ssRNA) [Ie_S3_P5E.1_K5.1_C5.1_H5.1_A5.1_F5.1_[+8TTC]_T5.1] >= 7
-- reply label 1

-- ask hey, is pKd for this one >= 7? UCUCUUACUAUAUUAUUAAAUCUCUU (ssRNA) [Id_ii_S1_P5E.3_K5.2_C5.2_[C-2A]_[T-1C]_H5.2_A5.1_F5.1_T5.2_[T11A]]
-- reply label 0

-- ask Form field: pKd at least 7? Entry: UCUCUUGUUAUAUAUAGUUCUCUU (ssRNA) [Id_ii_S1_P3E.3_K3.2_C3.2_[C-2G]_H3.2_A3.1_F3.1_T3.2_[T9G]_[A10T]]
-- reply label 1

-- ask # check: pKd of Ib_S4_P4E.1_K4.1_C4.1_H4.1_[G2C]_A4.1_F4.1_[T8C]_T4.1 (ssRNA) RNA: UUUGACAACUGAUCGUUCUUUCUUCUAUAUCAUUCUUUCUCGAUCAGUUGUCUUU is greater than or equal to 7
-- reply label 0

-- ask Dear colleague, could you confirm whether UCUCUUUGUAUUUCUAUUAUCUCUU (ssRNA) [Ie_S1_P5E.1_K5.1_C5.1_H5.1_A5.1_[+5TTC]_F5.1_T5.1] has pKd at or above 7?
-- reply label 1

-- ask // inclusive: pKd at least 7? input: ACAAACUGACACUAUUAACACAAAC (ssRNA) [Id_ii_S3_P4E.4_K4.3_C4.2_[C-2T]_[T-1G]_H4.3_A4.1_F4.1_T4.2_[G10A]_[T11C]]
-- reply label 0
